Target: T1, mature human TGF-β2 (human, UniProt P61812 303-414)
T1 sequence: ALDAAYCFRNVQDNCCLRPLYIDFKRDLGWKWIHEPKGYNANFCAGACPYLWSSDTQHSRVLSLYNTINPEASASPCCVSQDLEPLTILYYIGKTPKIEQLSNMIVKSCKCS
Assay: cell-based or functional assay
value-kind: HT-2 cell neutralization assay, IC50 (Mean ng/ml)

Recorded results for 3 binders are shown here.
[
  {
    "binder": "1D11.16 (antibody, from another filing, V domains shown) VH: QVQLQQSGPELVRPGASVKLSCKASGYIFITYWMNWVKQRPGQGLEWIGQIFPASGSTNYNEMFEGKATLTVDTSSSTAYMQLSSLTSEDSAVYYCARGDGNYALDAMDYWGQGTSVTVSS VL: DIVLTQSPASLAVSLGQRATISCRASESVDSYGNSFMHWYQQKSGQPPKLLIYLASNLESGVPARFSGSGSRTDFTLTIDPVEADDAATYYCQQNNEDPLTFGAGTKLEIK",
    "val": "574 ng/mL"
  },
  {
    "binder": "mAb 3.A (antibody, human IgG4 S228P, kappa, V domains shown, Full-length monoclonal antibody, made by linking the Fab to an IgG4 Fc region) VH: QVQLVQSGAEVKKPGASVKVSCKASGYTFTSYWMNWVRQAPGQGLEWMGQIFPASGSTNYGEMFEGRVTMTTDTSTSTAYMELRSLRSDDTAVYYCARGIGNYALDAMDYWGQGTLVTVSS VL: DIQMTQSPSSLSASVGDRVTITCRASESVDFWGNSFMHWYQQKPGKAPKLLIYLASNLESGVPSRFSGSGSGTDFTLTISSLQPEDFATYYCQQNIEDPLTFGGGTKVEIKR",
    "val": "51.4 ng/mL"
  },
  {
    "binder": "mAb 12.7 (antibody, human IgG4 S228P, kappa, V domains shown, Full-length monoclonal antibody, made by linking the Fab to an IgG4 Fc region) VH: QVQLVQSGAEVKKPGASVKVSCKASGYTFTSEWMNWVRQAPGQGLEWMGQIFPALGSTNYNEMYEGRVTMTTDTSTSTAYMELRSLRSDDTAVYYCARGIGNYALDAMDYWGQGTLVTVSS VL: DIQMTQSPSSLSASVGDRVTITCRASESVDFYGNSFMHWYQQKPGKAPKLLIYLASNLESGVPSRFSGSGSGTDFTLTISSLQPEDFATYYCQQNIEDPLTFGGGTKVEIKR",
    "val": "3.34 ng/mL"
  }
]

Now look at this entry.
HT-2 cell neutralization assay, IC50 (Mean ng/ml) for mAb 4.17 (antibody, human IgG4 S228P, kappa, V domains shown, Full-length monoclonal antibody, made by linking the Fab to an IgG4 Fc region) VH: QVQLVQSGAEVKKPGASVKVSCKASGYTFTSYWMNWVRQAPGQGLEWMGQIFPFSGSTNYNEMFEGRVTMTTDTSTSTAYMELRSLRSDDTAVYYCARGIGNYALDAMDYWGQGTLVTVSS VL: DIQMTQSPSSLSASVGDRVTITCRASESVDFWGNSFMHWYQQKPGKAPKLLIYLASNLESGVPSRFSGSGSGTDFTLTISSLQPEDFATYYCQQNAEDPLTFGGGTKVEIKR is 3.65 ng/mL
